tested on: HL-60(TB) leukemia; assay: NCI-60 one-dose screen, 48 h (100 = growth as untreated, 0 = no growth, -100 = all killed); conditions: 10 µM unless noted
The panel holds about 83,000 compounds, 20% with a hit somewhere; the sample as a whole holds those more often.
Entries and their growth

COMPOUND	TGT	growth / %
O=S(=O)(NCCNc1nccc(-c2c(-c3cccc(F)c3)nc3sccn23)n1)c1ccccc1	HL-60(TB) leukemia	63.1
O=C(O)c1cn(C2CC2)c2cc(N3CCN(C(=O)N4CCOCC4)CC3)c(F)cc2c1=O	HL-60(TB) leukemia	90.3
Cc1[nH]n(C(=S)Nc2nc3cc(Cl)c(F)cc3s2)c(=O)c1N=Nc1ccc(F)c(Cl)c1	HL-60(TB) leukemia	127
CC(=O)O[C@H]1CC[C@H]2[C@@H]3CC[C@H]4CC=C(C)C[C@]4(C)[C@H]3CC[C@]12C	HL-60(TB) leukemia	89.9
CCOc1ccc(C(=O)NCC(C)C)cc1	HL-60(TB) leukemia	94.9
Clc1nc(Cl)c2c3c(sc2n1)CCCC3	HL-60(TB) leukemia	-14.2
COc1ccc2c(c1)C(C)Cc1c(ncnc1-n1cnc3cc(C)ccc31)N2C (stereo unspecified)	HL-60(TB) leukemia	-25.8
O=C1C(=O)c2ccccc2C(O)=C1CCCc1ccc(Oc2ccccc2)cc1	HL-60(TB) leukemia	44.3
Cc1cc[n+](CCCC[n+]2ccc(C)cc2)cc1	HL-60(TB) leukemia	94.5
O=C(Cn1nnc2ccccc21)Nc1ccc(-c2nc3ccccc3s2)cc1	HL-60(TB) leukemia	90.8
CCCCCCCCCCSC(=N)N (tested in a mixture with another compound)	HL-60(TB) leukemia	62.8
COc1cccc(/C=C2\Oc3cc(OCCCN4CCCC4)ccc3C2=O)c1	HL-60(TB) leukemia	81
CC(C)(C)c1ccc(S(=O)(=O)N[C@H]2CC[C@H]3[C@@H]4CCc5cc(O)c([N+](=O)[O-])cc5[C@H]4CC[C@]23C)cc1	HL-60(TB) leukemia	60.7
Cc1ccc(N=Nc2ccccc2)cc1	HL-60(TB) leukemia	85.8
C=C(C)[C@@H]1CC[C@]2(C(=O)NC(COC(=O)C(Cl)Cl)(COC(=O)C(Cl)Cl)COC(=O)C(Cl)Cl)CC[C@]3(C)[C@H](CC[C@@H]4[C@@]5(C)CC[C@H](OC(C)=O)C(C)(C)[C@@H]5CC[C@]43C)[C@@H]12	HL-60(TB) leukemia	16.7
O=S(=O)(c1ccccc1)N1CCCN(c2nc(-c3ccccc3)nc3nc(-c4ccccc4)oc23)CC1	HL-60(TB) leukemia	102

====

test system: SNB-75 CNS; assay: NCI-60 one-dose screen, 48 h (100 = growth as untreated, 0 = no growth, -100 = all killed); conditions: 10 µM unless noted
The panel holds about 83,000 compounds, 20% with a hit somewhere; the sample as a whole holds those more often.
Listed here: items and their measured growth.
MEASUREMENT_KIND: growth (%)

> print(dat)
                                    compound  test.value
 1     CCN(CC)c1ccc(C=C2C(=O)NC(=S)NC2=O)cc1        75.8
 2  CC12CCC(=O)C=C1CCC1C2CCC2(C)C(C(=O)COC(=O)Cc3ccc(N(CCCl)CCCl)cc3)CCC12 (stereo not drawn)        83.3
 3  Nc1ncnc2c1c(C(=O)NO)cn2C1OC(CO)C(O)C1O (stereo not drawn)        4.46
 4               C1CN1c1nc(N2CC2)nc(N2CC2)n1       -17.6
 5    O=[N+]([O-])c1ccc(F)c([N+](=O)[O-])c1F         116
 6              O=[N+]([O-])c1ccccc1N1CCNCC1        92.5
 7  COc1cc(C2=NN(c3ccccc3)C(c3sc(N(CCCl)CCCl)nc3Cl)C2)cc(OC)c1OC (stereo not drawn)        69.2
 8  CO[C@@H]([CH2][Hg][S]C#N)[C@@H]([CH2][Hg][S]C#N)OC        84.5
 9  CC[CH2][Pb]([CH2]CC)([CH2]CC)[O]C(=O)C(F)(F)F       -99.9
10  C/C1=C/C(=O)O[C@@H]2C[C@@H](CC[C@H](C)/C=C\C=C\CC1)O[C@@](OCCc1ccccc1)([C@@H]1CSC(=O)N1)C2       -62.8
11  CCCCCN(CCCCC)CC(O)c1ccc(C)c(Cl)c1 (stereo not drawn)        90.9
12           n1nc(-c2nonc2-c2nn[nH]n2)n[nH]1         106
13  Cc1cc(NC(=O)/C=C/c2ccc([N+](=O)[O-])cc2)ccc1S(=O)(=O)F         106
